- TEST SYSTEM: Neuropeptide S receptor (Mus musculus) (UniProt Q8BZP8)
- Sequence (Q8BZP8 whole entry): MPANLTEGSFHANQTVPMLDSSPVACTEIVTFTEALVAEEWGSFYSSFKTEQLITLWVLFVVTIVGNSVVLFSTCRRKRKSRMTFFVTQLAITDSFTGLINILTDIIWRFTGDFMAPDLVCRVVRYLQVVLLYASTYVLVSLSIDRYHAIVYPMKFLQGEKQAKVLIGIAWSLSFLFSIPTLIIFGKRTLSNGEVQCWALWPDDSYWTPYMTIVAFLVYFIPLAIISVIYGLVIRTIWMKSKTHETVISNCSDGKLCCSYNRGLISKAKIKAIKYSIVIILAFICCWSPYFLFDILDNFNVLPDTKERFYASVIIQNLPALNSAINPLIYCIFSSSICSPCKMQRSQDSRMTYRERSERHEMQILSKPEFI
- ASSAY EXPLANATION: Agonist activity at mouse NPSR expressed in HEK293 cells assessed as increase in intracellular calcium mobilization by FLIPR relative to baseline
- Assay type: functional, cell-based
Non-standard residues stand in square brackets, D forms with d. Residues, ends and D or L forms follow the SMILES beside them. Cit = NC(=O)NCCC[C@H](N)C(=O)O; Dap = NC[C@H](N)C(=O)O
# maps each entry to its Emax
RESULT TYPE: Emax (%)

COMPOUND: CSCC[C@H](NC(=O)CNC(=O)[C@@H](NC(=O)CNC(=O)[C@@H](NC(=O)CNC(=O)[C@H](CC(N)=O)NC(=O)[C@H](CN)NC(=O)[C@H](Cc1ccccc1)NC(=O)[C@@H](N)CO)C(C)C)[C@@H](C)O)C(=O)N[C@@H](CCCCN)C(=O)N[C@@H](CCCCN)C(=O)N[C@H](C(=O)N[C@@H](CO)C(=O)N[C@@H](Cc1ccccc1)C(=O)N[C@@H](CCC(N)=O)C(=O)N[C@@H](CCCNC(=N)N)C(=O)N[C@@H](C)C(=O)N[C@@H](CCCCN)C(=O)N[C@@H](CO)C(=O)O)[C@@H](C)O (H-SF[Dap]NGVGTGMKKTSFQRAKS-OH)
MEASURED VALUE: 196

COMPOUND: CSCC[C@H](NC(=O)CNC(=O)[C@@H](NC(=O)CNC(=O)[C@@H](NC(=O)CNC(=O)[C@H](CC(N)=O)NC(=O)[C@H](CCCNC(N)=O)NC(=O)[C@H](Cc1ccccc1)NC(=O)[C@@H](N)CO)C(C)C)[C@@H](C)O)C(=O)N[C@@H](CCCCN)C(=O)N[C@@H](CCCCN)C(=O)N[C@H](C(=O)N[C@@H](CO)C(=O)N[C@@H](Cc1ccccc1)C(=O)N[C@@H](CCC(N)=O)C(=O)N[C@@H](CCCNC(=N)N)C(=O)N[C@@H](C)C(=O)N[C@@H](CCCCN)C(=O)N[C@@H](CO)C(=O)O)[C@@H](C)O (H-SF[Cit]NGVGTGMKKTSFQRAKS-OH)
MEASURED VALUE: 285
